- ASSAY_PROTOCOL: in vitro
- ASSAY_CONTEXT: human, hela cells, % viability
MEASURED_QUANTITY: viability at 28.5 h, 10 µM (%)
Record the value in %, omitting the unit from your answer.

Worked cases, viability at 28.5 h, 10 µM given:
CN(c1ncc(-c2ccccc2)cc1C(=O)NCc1cccnc1)S(C)(=O)=O [CBK076507]: 98.9
Cc1ccc(N2C(=O)c3ccc(S(=O)(=O)c4cccc(C(=O)O)c4)cc3C2=O)c(C)c1 [CBK262783]: 86.2
CNC(=O)c1cc(NC(=O)NCC2CC(=O)N(CCOC)C2)ccc1F (stereo not shown) [CBK304403]: 107

Recorded result, CCN1C(=O)C2(CC(=O)N(CCc3cccc(OC)c3)C2=O)c2cc(C)ccc21 (stereo not shown) [CBK075195] , viability at 28.5 h, 10 µM: 96.7

###

- ASSAY_PROTOCOL: in vitro
- ASSAY_CONTEXT: human, hela cells, % viability
Sorting guide: entries reporting viability at 28.5 h, 10 µM beneath 90% go in the 1 (yes) pile, the rest go in the 0 (no) pile.

Reference set, count: 10
Cc1cc(NO)nc(-c2ccc(Br)cc2)n1: 0 (no)
CCN(CC)C(=O)c1[nH]c2ccccc2c1NS(=O)(=O)c1ccc(C(F)(F)F)cc1[N+](=O)[O-]: 0 (no)
N=C(N/N=C\c1ccncc1)N/N=C\c1ccncc1 [CBK263278C]: 0 (no)
CCCn1nc(COc2cccc(F)c2)nc1C1CCN(C(C)=O)CC1: 0 (no)
CC(C)OC(=O)CSc1nnc(-c2cnccn2)n1Cc1ccco1: 0 (no)
CC1(C)OCc2nc(C(O)C(C)(C)C)ccc2O1 (centres unmarked): 0 (no)
Cc1ccccc1CSCC(=O)Nc1c[nH]c(=O)[nH]c1=O: 1 (yes)
Cc1cccc2cc(C#N)c(NCCCn3ccnc3)nc12: 1 (yes)
CN(C)c1ccc(-c2nnc([C@H]3CCN(C(=O)c4ccccc4)C3)o2)cc1: 1 (yes)
Cc1cc(C(=O)N2CCC(Cc3ccccc3-c3ccccc3)(C(=O)N(C)C)CC2)cs1: 0 (no)

Would you kindly verify if viability at 28.5 h, 10 µM of Cc1ccccc1-c1ccc2n(c1=O)C[C@H]1C[C@@H]2CN(C(=O)CCC(=O)O)C1 is strictly less than 90%?
0 (no)

Is viability at 28.5 h, 10 µM strictly under 90% for the entry COc1ccc(NC(=O)c2cc([N+](=O)[O-])ccc2N2CCN(C)CC2)cc1 ?
0 (no)

Quick check: viability at 28.5 h, 10 µM of CN1CCN(C(=S)SCc2nc(N)nc(Nc3ccc(F)cc3)n2)CC1 under 90%?
1 (yes)

Given Cc1ccc(S(=O)(=O)NCc2c(-c3ccccc3)c3cc(Br)ccc3[nH]c2=O)cc1 , is recorded viability at 28.5 h, 10 µM strictly lower than 90%?
0 (no)

###

# reported viability at 28.5 h, 10 µM; entries follow
- ASSAY_PROTOCOL: in vitro
- ASSAY_CONTEXT: human, hela cells, % viability
Please state the figure in %; there is no need to write the unit.

Look over these answered cases.
O=C(O)c1ccccc1SC1CC(=O)N(c2ccccc2)C1=O (stereo not drawn): 94.6
COCOc1ccc(-c2nccnc2OCCc2cccs2)cc1: 106
Nc1nonc1-c1nc2ccccc2n1CC(=O)NCc1ccccc1: 92.1
O=C(O)c1cccc(Sc2cccc(C(F)(F)F)n2)c1: 98

The recorded viability at 28.5 h, 10 µM for entry COc1cc(OC)cc(-c2[nH][nH]c(=O)c2CCN)c1 equals 110

// Fc1ccccc1CN(CCCn1ccnc1)Cc1ccoc1 : viability at 28.5 h, 10 µM value = 89.9

The compound identified as CN(C)C(=O)C1(Cc2ccc(-c3cccs3)cc2)CCN(C(=O)Cc2ccccc2)CC1 registered its viability at 28.5 h, 10 µM at 93.2

Briefly, viability at 28.5 h, 10 µM measured for CCCC(=O)NC(c1ccc(OC)c(OC)c1)c1c(O)ccc2ccccc12 (stereo not drawn) : 95.2

Looking up N#Cc1ccc(Cn2nc(NC(=O)c3ccco3)c3ccccc32)cc1 , I found its viability at 28.5 h, 10 µM recorded as 91.8

Quick note, viability at 28.5 h, 10 µM for Cc1oc(-c2ccccc2)cc1C(=O)Nc1ccccc1N1CCCNCC1 [CBK038940T] landed at 83.5

The reported value for CCn1ncc(CN2CCCCCC2c2cc(C)on2)c1C (stereo not drawn) in terms of viability at 28.5 h, 10 µM is 91.7

Measured viability at 28.5 h, 10 µM of O=C(Nc1nc2ccccc2[nH]1)c1ccc(N2CCCS2(=O)=O)cc1 : 98.6

###

Measured viability at 28.5 h, 10 µM accompanies every entry in the list below.
- ASSAY_PROTOCOL: in vitro
- ASSAY_CONTEXT: human, hela cells, % viability
Report the figure in % without appending any unit label.

Please review the entries below; each comes with its answer.
CC(C)C(=O)N1CCC(c2[nH]ncc2-c2ccncc2)CC1 [CBK284237]: 79.6
Cc1nnc(SCC(=O)N2CCN(Cc3ccccc3)CC2)s1 [CBK267196]: 96
Cn1ccnc1C1(O)CC2CCC(C1)N2C(=O)c1ccccc1Cl (stereo not shown) [CBK284090]: 99

response.value for Cn1c(C2CC2)nc2c1CCN(Cc1cc(=O)n(C)c(=O)n1C)C2 [CBK304025] (field: viability at 28.5 h, 10 µM) = 115

Given item COc1ccccc1CC(=O)N1[C@H](Cc2ccccc2)C[C@@H]2NCCCCC[C@H]21 [CBK285978] , the value recorded as its viability at 28.5 h, 10 µM is 96.3

# viability at 28.5 h, 10 µM (compound: N#C/C(=C\c1cn(CCC(N)=O)c2ccccc12)Sc1nc2ccccc2s1 [CBK267897] ) is 103

Recorded viability at 28.5 h, 10 µM (compound Cc1cccc(NC(=O)C(CC(=O)O)NCc2ccccc2)c1 (stereo not shown) [CBK266821] ): 87.3

Field viability at 28.5 h, 10 µM (entry O=C1NCCN1c1cccc(Cl)c1 [CBK016915] ) reads 88.3

get_value(item= Cc1ccc(N(CC(O)CNC23CC4CC(CC(C4)C2)C3)S(=O)(=O)c2ccccc2)cc1 (stereo not shown) [CBK264741] , readout=viability at 28.5 h, 10 µM) returns 110

Per the records, this compound ( CCn1ncc2c1CCCC2NC1CCCN(c2cnn(C)c2)C1=O (stereo not shown) [CBK305316] ) has viability at 28.5 h, 10 µM equal to 88.7

// field: viability at 28.5 h, 10 µM; key: Nc1nc(CSc2nnc(-c3ccncc3)o2)nc(Nc2ccc(F)cc2)n1 [CBK266221] ; value = 116

The recorded viability at 28.5 h, 10 µM for O=C(Nc1nccs1)c1nccnc1-c1ccc(COc2ccccc2)cc1 [CBK050839] is 95.6

# compound Cc1ccc(C)c(C2CCCN2C(=O)Cn2cc(C(=O)NCc3ccccc3)ccc2=O)c1 (stereo not shown) [CBK286052] ; its viability at 28.5 h, 10 µM = 112

Kindly note the recorded viability at 28.5 h, 10 µM for CC(Oc1cccc2cccnc12)C(=O)N/N=C/c1ccc(-c2ccc(Br)cc2)o1 (stereo not shown) [CBK262838] , which is 93.4

###

- ASSAY_PROTOCOL: in vitro
- ASSAY_CONTEXT: human, hela cells, % viability
MEASURED_QUANTITY: viability at 28.5 h, 10 µM

Some solved cases for reference:
CCN(CC)CCNC(=O)c1ccc(C(=O)O)c(C)n1: 85.9%
O=C(NC1CCCC1)c1ccc(=O)[nH]c1: 104%
Cc1ccc(NC(=O)Nc2cc(S(N)(=O)=O)ccc2C)cc1: 98.5%
Cc1ccccc1NC(=O)CCC(=O)N/N=C/c1ccncc1: 101%
CC(=O)NC1CCN(c2nc(N(C)C)nc3c2CCN(C(C)=O)C3)CC1: 85.6%
CCOC(=O)c1nc(-c2ccccc2)sc1C(C)=O: 98.8%
O=C(CSc1nnc(-c2ccccn2)[nH]1)NC1CC2CCC1C2 (stereo not shown): 83%
CC(=O)C(CC(=O)O)C1=C(O)CC(C)(C)CC1=O (stereo not shown): 91.5%
O=C(/C=C/c1cccc([N+](=O)[O-])c1)NCCN1CCOCC1: 90.5%
COCCn1c(CO)nnc1[C@H]1C[C@H](NC(=O)c2ccc(F)cc2F)C1: 102%

Lab book: viability at 28.5 h, 10 µM of Fc1ccccc1/C=N/Nc1nccnc1Cl noted as 87.8%

// O=C(O)c1oc2ccccc2c1CN1CCN(c2ccccc2)CC1 : viability at 28.5 h, 10 µM value = 115%

Query Cc1cnc(C)c(N2CCN(c3cc([C@H]4C[C@@H](N)C4)ncn3)CC2)n1 yields viability at 28.5 h, 10 µM of 88.7%

Record S=c1n(CN2CCC3(CC2)OCCO3)nc(-c2ccccc2Cl)n1-c1ccccc1 , field viability at 28.5 h, 10 µM: 88.4%

Sample COC(=O)c1ccccc1NC(=O)CN(c1cccc(Cl)c1Cl)S(C)(=O)=O ; viability at 28.5 h, 10 µM observed: 115%

Entry under test: CC1(C)C[C@H](NC2CCOCC2)[C@@]2(CCC(=O)N3CCOCC3)CC[C@](C)(O)C[C@@H]12 . Its viability at 28.5 h, 10 µM was 91.6%

// viability at 28.5 h, 10 µM lookup, molecule = O=c1[nH]c(=O)c2cc(S(=O)(=O)NCCN3CCc4ccccc43)ccc2[nH]1 , result: 91.5%

Recorded viability at 28.5 h, 10 µM (molecule O=C(NCc1ccc(F)cc1)N(Cc1cccc(Cl)c1)CC1CCNCC1 ): 117%

Per the records, this molecule ( CC(=O)Nc1ccccc1NC(=O)C(C)Oc1ccc(Cl)cc1Cl (stereo not shown) ) has viability at 28.5 h, 10 µM equal to 96.8%

Numbers sourced from paper PMC12040169.
